# measurement protocol: chemical genetic growth profiling, strain panel (AID 1159580);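 further: tested at 20 µM; growth read once vehicle control cultures reached saturation at 30 °C; 1 = growth at the plate median or of vehicle wells; lower values mean less growth of the strain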
# applied conditions: S. cerevisiae deletion strains, growth OD, locus YLR113W, strain HOG1, stronger effect = lower value
In all, about 5,500 compounds went through this assay and about 2,000 (36%) were called active. Roughly 18% stayed inconclusive and do not appear here. The list shows a part of the results.
assay readout: normalized growth
Respond using a number only.

Task item: # get_value(readout='normalized growth', item= `N#CC(C#N)=Cc1c(-c2ccccc2Cl)[nH]c2ccccc12` )
Reply: 0.821

Task item: # get_value(readout='normalized growth', item= `Clc1cccc(Nc2ncc(-c3ccc4c(c3)OCCCO4)s2)c1` )
Reply: 0.682

Task item: # get_value(readout='normalized growth', item= `CNCC[C@H](Oc1cccc2ccccc12)c1cccs1` )
Reply: 1.02

Task item: # get_value(readout='normalized growth', item= `Cc1c(S(=O)(=O)Nc2cccc([N+](=O)[O-])c2)sc2ccc(Cl)cc12` )
Reply: 0.878

Task item: # get_value(readout='normalized growth', item= `Clc1ccc(CSc2nccn2-c2cc(Cl)ccc2Cl)cc1` )
Reply: 0.884

Task item: # get_value(readout='normalized growth', item= Clc1ccc(C(Cn2ccnc2)OCc2ccsc2Cl)c(Cl)c1 (configuration not stated) )
Reply: 0.175

Task item: # get_value(readout='normalized growth', item= CCC(=O)OC1[C@@H]2CC3=C4CC(=O)O[C@@H](c5ccoc5)[C@]4(C)CCC3[C@@](C)(C2=O)[C@@H](CC(=O)OC)C1(C)C (some centres not stated) )
Reply: 1.01

Task item: # get_value(readout='normalized growth', item= CC(=O)O[C@@H]1CC2C(C)(C)[C@@H](O)CC[C@]2(C)C2CC[C@@]3(C)[C@H](c4ccoc4)OC(=O)[C@H]4O[C@]43[C@@]21C (some centres not stated) )
Reply: 0.968

Task item: # get_value(readout='normalized growth', item= CC(C)/C(O)=C1/C(=O)O[C@@H](c2ccoc2)[C@]2(C)C(O)[C@@H](O)[C@@]34OC5(C)OC67CC(C)(C(O)[C@]6(O)[C@@H](O)[C@]3(O5)C12)[C@H](CC(=O)O)[C@]74C (some centres not stated) )
Reply: 0.997

Task item: # get_value(readout='normalized growth', item= `O=NN(CCCl)C(=O)NCCCl` )
Reply: 0.312

Task item: # get_value(readout='normalized growth', item= CC(=O)O[C@@H]1CC2C(C)(C)[C@H](O)CC[C@]2(C)C2CC[C@@]3(C)[C@H](c4ccoc4)OC(=O)C4OC43[C@@]21C (some centres not stated) )
Reply: 1.08

Task item: # get_value(readout='normalized growth', item= C=C[C@@]1(C)CC(=O)[C@@]2(O)[C@](C)(O1)[C@@H](OC(C)=O)[C@@H](O)C1C(C)(C)CC[C@H](O)[C@@]12C (some centres not stated) )
Reply: 0.955

Task item: # get_value(readout='normalized growth', item= CCN1C[C@@]2(COC)C3[C@@H](OC)[C@H]4[C@@H]1[C@]3(C(OC)C[C@H]2O)C1C[C@@]2(O)[C@H](OC(=O)c3ccccc3)C1[C@]4(OC(C)=O)[C@@H](O)[C@@H]2OC (some centres not stated) )
Reply: 0.94

Task item: # get_value(readout='normalized growth', item= `CN(C/C=C/C#CC(C)(C)C)Cc1cccc2ccccc12` )
Reply: 0.807

Task item: # get_value(readout='normalized growth', item= CC1(C)C(=O)[C@@H]2O[C@@H]2[C@@]2(C)C1C[C@@H](O)[C@]1(C)C2CC[C@@]2(C)[C@H](c3ccoc3)OC(=O)C3OC321 (some centres not stated) )
Reply: 1.01

Task item: # get_value(readout='normalized growth', item= COc1ccc2c(c1)OCC(Cc1ccc(OC)c(OC(C)=O)c1)C2=O (configuration not stated) )
Reply: 0.95

Task item: # get_value(readout='normalized growth', item= `O=S(=O)(NCc1cc(Cl)cc(Cl)c1)c1cc(C(F)(F)F)cc(C(F)(F)F)c1` )
Reply: 0.803

Task item: # get_value(readout='normalized growth', item= CC(=O)O[C@H]1C[C@@H](OC(C)=O)C(C)(C)C2C[C@@H](OC(C)=O)[C@]3(C)C(CC[C@@]4(C)[C@H](c5ccoc5)OC(=O)[C@H]5O[C@]543)[C@]21C (some centres not stated) )
Reply: 1.03

Task item: # get_value(readout='normalized growth', item= CC1CCC(NC(=O)N(CCCl)N=O)CC1 (configuration not stated) )
Reply: 0.902

Task item: # get_value(readout='normalized growth', item= COc1ccc2c(c1)OCC(Cc1ccc(O)c(OC)c1)C2=O (configuration not stated) )
Reply: 0.979

Task item: # get_value(readout='normalized growth', item= `Nc1nc(F)nc2c1ncn2[C@@H]1O[C@H](COP(=O)(O)O)[C@@H](O)[C@@H]1O` )
Reply: 0.979

Task item: # get_value(readout='normalized growth', item= `CC(=O)O[C@]1(C)CC[C@@]23CC1C(C)(C)[C@@H]2CC[C@H]3C` )
Reply: 0.911

Task item: # get_value(readout='normalized growth', item= O=C(O)CCC1NCC2CC1CN1CCCCC21 (configuration not stated) )
Reply: 0.983

Task item: # get_value(readout='normalized growth', item= Cc1ncc([N+](=O)[O-])n1CC(O)CCl (configuration not stated) )
Reply: 0.978

Task item: # get_value(readout='normalized growth', item= CC(=O)O[C@H]1C[C@@]2(C)[C@@H](C[C@@H](O)C3[C@]2(C)CC[C@H]2[C@H](C)[C@H](O)CC[C@]32C)/C1=C(/CCC=C(C)C)C(=O)O (some centres not stated) )
Reply: 0.957

Task item: # get_value(readout='normalized growth', item= CC(=O)O[C@@H]1CC2C(C)(C)C(=O)C3OC3[C@]2(C)C2CC[C@@]3(C)[C@H](c4ccoc4)OC(=O)C4OC43[C@@]21C (some centres not stated) )
Reply: 0.999

Task item: # get_value(readout='normalized growth', item= `CC[C@@H]1OC(=O)C[C@@H](O)[C@H](C)[C@@H](O[C@@H]2O[C@H](C)[C@@H](O)[C@H](N(C)C)[C@H]2O)[C@@H](CCN2C[C@H](C)C[C@H](C)C2)C[C@@H](C)C(=O)/C=C/C(C)=C\[C@@H]1CO[C@@H]1O[C@H](C)[C@@H](O)[C@@H](OC)[C@H]1OC` )
Reply: 1

Task item: # get_value(readout='normalized growth', item= COc1ccc(CCC(=O)c2c(O)cc(O[C@@H]3O[C@H](CO)C(O)[C@H](O)C3O[C@@H]3O[C@@H](C)[C@H](O)[C@@H](O)[C@H]3O)cc2O)cc1O (some centres not stated) )
Reply: 0.98

Task item: # get_value(readout='normalized growth', item= `O=C(NNc1ccccc1)c1cc(-c2ccc(Cl)cc2)oc1C(F)(F)F` )
Reply: 0.234

Task item: # get_value(readout='normalized growth', item= CC1C/C=C/C=C/C=C/C=C/C(O[C@@H]2O[C@H](C)[C@@H](O)[C@H](N)[C@@H]2O)CC2OC(O)(CC(O)CC3OC3/C=C/C(=O)O1)CC(O)C2C(=O)O (some centres not stated) )
Reply: 1.02

Task item: # get_value(readout='normalized growth', item= `Clc1ccc(-c2cnc(Nc3cc(Cl)cc(Cl)c3)s2)cc1` )
Reply: 0.163

Task item: # get_value(readout='normalized growth', item= `O=C(Nc1ccncc1)c1cc(-c2ccccc2)oc1C(F)(F)F` )
Reply: 0.843

---

# measurement protocol: chemical genetic growth profiling, strain panel (AID 1159580);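 further: tested at 20 µM; growth read once vehicle control cultures reached saturation at 30 °C; 1 = growth at the plate median or of vehicle wells; lower values mean less growth of the strain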
# applied conditions: S. cerevisiae deletion strains, growth OD, locus YKR026C, strain gcn3
About 2,000 (36%) of roughly 5,500 compounds were called active. Not shown: some 18% with an inconclusive outcome. Cut-off read from the data, not from the text of the source: active = normalized growth mostly below about 0.91 (no sharp cut-off); inconclusive = no clear call, values can overlap the other calls; inactive = mostly above about 0.92. Some of the results follow.
// classify into YES = active, NO = inactive

Task item: // return assay outcome for CC(=O)Oc1ccc2c(c1)CCC1C2CC[C@]2(C)C(=O)CCC12 (stereo partly drawn)
Reply: NO

Task item: // return assay outcome for `CN(C/C=C/C#CC(C)(C)C)Cc1cccc2ccccc12`
Reply: YES

Task item: // return assay outcome for CC(=O)OCC(=O)[C@@]1(O)CCC2C3CCC4=CC(=O)C=CC4(C)C3[C@@H](O)C[C@@]21C (stereo partly drawn)
Reply: NO

Task item: // return assay outcome for C[C@]12CCC3c4ccc(O)cc4CCC3C1CCC2=O (stereo partly drawn)
Reply: NO

Task item: // return assay outcome for COC1C=CC23c4cc5c(cc4CN(CC2O)[C@@H]3C1)OCO5 (stereo partly drawn)
Reply: NO

Task item: // return assay outcome for `CCCn1c(=O)c2[nH]c(C3CCCC3)nc2n(CCC)c1=O`
Reply: NO

Task item: // return assay outcome for `CC(=O)OC/C=C(\C)CC/C=C(\C)CC/C=C(\C)CC/C=C(\C)CC/C=C(\C)CC/C=C(\C)CC/C=C(\C)CC/C=C(\C)CCC=C(C)C`
Reply: NO

Task item: // return assay outcome for `c1ccc2c(CC3=NCCN3)cccc2c1`
Reply: NO
